System: Escherichia coli ATCC 11775
Test: Antibacterial screen at 200 μg/mL (cell density vs control)
Format: cell-based
Settings: peptide 200 μg/mL, CAMHB, 5 × 10^5 CFU/mL, 37°C, 12 h, OD600; control (no AMP) = 1; three biological replicates
Method: Eight bacterial strains were utilized in the antibacterial experiment. S. aureus ATCC 12600, B. subtilis ATCC 23857, E. coli ATCC 11775, and A. baumannii ATCC 19606 were purchased from Shanghai Beinuo Biology. […] Three biological replicates were conducted for each group, and OD600 values were measured after incubation at 37°C for 12 h. […] The MIC of a peptide against a bacterium was determined as the minimum peptide concentration at which there was no visible bacterial growth.
measureName: cell density relative to control, E. coli ATCC 11775
Just the number, please.

# input sequence: MPKVKTKVCHRR [Cand-26, chemically synthesized candidate AMP predicted from marine biofilm bacteria] ; wanted: its cell density relative to control, E. coli ATCC 11775 1

Param item: MKGLSKCVTHVVTAA [Cand-115, chemically synthesized candidate AMP predicted from marine biofilm bacteria] 1

Param item: MQPILKKAAPKHVGYFYKCYL [Cand-119, chemically synthesized candidate AMP predicted from marine biofilm bacteria] 0.618

Param item: MWWSKSIHQACFTRYRGYCRWCCTFSIRSCRY [Cand-3, chemically synthesized candidate AMP predicted from marine biofilm bacteria] 0.786

Param item: MRPCMCRIGGGH [Cand-13, chemically synthesized candidate AMP predicted from marine biofilm bacteria] 1

Param item: MPKRPWRACSSIG [Cand-212, chemically synthesized candidate AMP predicted from marine biofilm bacteria] 1

Param item: MCALKWFCKSLIRALNKAT [Cand-68, chemically synthesized candidate AMP predicted from marine biofilm bacteria] 0

Param item: MYSVWPKSLRSVAGRGPKHRC [Cand-139, chemically synthesized candidate AMP predicted from marine biofilm bacteria] 0.764

Param item: MCTSKKKVWRCVAPS [Cand-33, chemically synthesized candidate AMP predicted from marine biofilm bacteria] 0.96

Param item: MGTYPKVGNSHWKR [Cand-69, chemically synthesized candidate AMP predicted from marine biofilm bacteria] 1

Param item: MLKLSWNLCRPIGRRW [Cand-186, chemically synthesized candidate AMP predicted from marine biofilm bacteria] 0.036

Param item: MRVGMCRIGGRL [Cand-79, chemically synthesized candidate AMP predicted from marine biofilm bacteria] 0.73

Param item: MGRISCMWSSSYKCRFNCYF [Cand-20, chemically synthesized candidate AMP predicted from marine biofilm bacteria] 1

Param item: MCCVGRGVSFLRTRKCFIKS [Cand-161, chemically synthesized candidate AMP predicted from marine biofilm bacteria] 0

Param item: MRQGMCRIGGRL [Cand-55, chemically synthesized candidate AMP predicted from marine biofilm bacteria] 0.915

Param item: MAWISTRIACCCSTRLRRRIRTCSTSFCR [Cand-218, chemically synthesized candidate AMP predicted from marine biofilm bacteria] 0.021

Param item: MLTTIAKSTKKCKPKSCCACSLYRC [Cand-216, chemically synthesized candidate AMP predicted from marine biofilm bacteria] 0.832

Param item: MSCDLQKVRGCLPRLIVHK [Cand-142, chemically synthesized candidate AMP predicted from marine biofilm bacteria] 1
